From: patent US20210139565A1

Molecular target: T1, Y. pestis LcrV protein (Yersinia pestis KIM5, UniProt P0C7U7 1-326)
T1 construct: also called LcrV antigen
T1 sequence (P0C7U7 whole entry): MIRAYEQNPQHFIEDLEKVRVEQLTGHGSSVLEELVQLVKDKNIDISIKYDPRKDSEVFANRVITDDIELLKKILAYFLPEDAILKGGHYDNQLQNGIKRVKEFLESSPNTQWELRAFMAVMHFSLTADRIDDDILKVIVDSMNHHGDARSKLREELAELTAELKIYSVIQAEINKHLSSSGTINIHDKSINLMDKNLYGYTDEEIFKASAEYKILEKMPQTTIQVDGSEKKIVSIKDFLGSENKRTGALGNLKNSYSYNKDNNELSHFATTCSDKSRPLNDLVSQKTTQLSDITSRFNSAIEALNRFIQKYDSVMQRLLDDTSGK
Assay: SPR, BIACORE, LcrV immobilized on CM5 chip
Provide the reported Kd of each item.
Give the value in nM but do not write nM after it.

Record summary for 1LCRV28 (VHH) VHH: QVQLQESGGGLVQPGGSLRLSCAASGGTLGYYAIGWFRQAPGKEREAVSCITSSDTSAYYADSAKGRFTISRDNAKNTMYLQMNNLKPEDTAVYYCAAGYYFRDYSDSYYYTGTGMKVWGKGTQVTVSS : reported Kd = 0.19

Record summary for 1LCRV31 (VHH) VHH: QVQLQESGGGLVQPGGSLGLSCAASGSLLNIYAMGWYRQAPGRQRELVATVTSSGTAEYADSVKGRFTISRDNAKNTVYLQMNSLRPEDTGVYYCNAHLRYGDYVRGPPEYNYWGQGTQVTVSS : reported Kd = 0.0019

Record summary for 1LCRV32 (VHH) VHH: QVQLQESGGGMVEPGGSLRLSCAASGFRFSSYAMSWVRQAPGKGLERVSAINSDGDKTSYADSVKGRFTISRDNARNTLYLQMSNLKPEDTAVYYCADRDLYCSGSMCKDVLGGARYDFRGQGTQVTVSS : reported Kd = 22

Record summary for 1LCRV81 (VHH) VHH: QVQLQESGGGSVQPGGSLKLSCAASGFTFNWYTMAWYRQVPGEERKMVATITGASGDTKYADSVKGRSTISRDNAKNTVTLQMNSLKPGDTAVYYCHACLTYDSGSVKGVNYWGQGTQVTVSS : reported Kd = 3.5

Record summary for 1LCRV13 (VHH) VHH: QVQLQESGGGLVRPGGSLKLSCAASGFTFNWYTMAWYRQVPGEERKMVATITGASGDTKYADSVKGRFTISRDNAKNTVTLQMNSLKPGDTAVYYCHAYLTYDSGSVKGVNYWGQGTQVTVSS : reported Kd = 0.00063

Record summary for 2LCRV11 (VHH) VHH: QVQLQESGGGLVQPGGSTRLSCAASGFTLDIYAIGWFRQAPGKEHEGVSWIVGNDGRTYYIDSVKGRFTISRDNAKNTVYLEMNSLKPEDTAVYYCAAKFWPRYYSGRPPVGRDGYDYWGQGTQVTVSS : reported Kd = 8.2
